Reference for the values: the supplement of paper PMC10899765

- System: MCF10A
- method: one-nucleolus phenotype percent effect (relative to siNT 0% and siNOL11 100%); higher = more cells with one nucleolus (ribosome biogenesis inhibition)
- experimental conditions: 20 nM; 72 h
measurement kind: one-nucleolus phenotype percent effect (%)
Respond with the bare value in %.

Example cases with answers are listed next.
UGGAGUUAAGGGUUGCUUGGAGA [hsa-miR-4653-3p]; 47.6
CAGGGAGGCGCUCACUCUCUGCU [hsa-miR-4756-5p]; -3.87
ACCGUGCAAAGGUAGCAUA [hsa-miR-1973]; 2.66
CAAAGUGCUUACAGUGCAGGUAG [hsa-miR-17-5p]; -20.9
CUCUUGAGGGAAGCACUUUCUGU [hsa-miR-526b-5p]; 71.3

Which one-nucleolus phenotype percent effect value belongs to UAUCAUGGAGUUGGUAAAGCAC [hsa-miR-2681-3p] ?
-14.9

Item: ACAGAGGACAGUGGAGUGUGAGC [hsa-miR-6847-5p]
-1.08

Input UGACCCACCCCUCUCCACCAG [hsa-miR-7114-3p]
6.96

Check ACCUGGGUUGUCCCCUCUAG [hsa-miR-6742-3p] too.
-15.1

And what about the sequence UGAGGGGCAGAGAGCGAGACUUU [hsa-miR-423-5p] ?
13.3

Same thing, different sequence: CUCUGGGAAAUGGGACAG [hsa-miR-4314]
11.2

Next up: UCAGCAUUCAUUGGCACCAGAGA [hsa-miR-7157-5p]
13.5

Also need UGAGGUAGUAGUUUGUACAGUU [hsa-let-7g-5p] , thanks.
-16.7

Next sequence up: UGGGGAUUUGGAGAAGUGGUGA [hsa-miR-4450]
46.8

Likewise for GGCGGCGGCGGAGGCGGGGG [hsa-miR-3960] ?
26.8

* * *

- Tested on: MCF10A
- method: one-nucleolus phenotype percent effect (relative to siNT 0% and siNOL11 100%); higher = more cells with one nucleolus (ribosome biogenesis inhibition)
- experimental conditions: 20 nM; 72 h
measurement kind: one-nucleolus phenotype percent effect (%)
Numbers only here, please. The scale is %.

Name the reported one-nucleolus phenotype percent effect value associated with the sequence UUUGGCACUAGCACAUUUUUGCU [hsa-miR-96-5p]
19.4

Okay, and GUCCCUGAGUGUAUGUGGUG [hsa-miR-670] ?
-27.4

Now the sequence AAGCAGCUGCCUCUGAGGC [hsa-miR-646]
70.7

Same for UUUAGAUUGAACAUGAAGUUAG [hsa-miR-4760-5p]
-20.8

And UGAGUGUUGUCUACGAGGGCA [hsa-miR-3659] ?
-0.683

Another sequence to look at: AAGGGGCAGGGACGGGUGGCCC [hsa-miR-6743-5p]
1.94

* * *

- System: MCF10A
- method: percent viability (nuclei count relative to siNT); higher = more viable cells
- experimental conditions: 20 nM; 72 h
Hi! Just check whether percent viability is below 50%. Below gives 1 (yes), equal or above gives 0 (no).

Worked cases, answers included:
CAGGCGUCUGUCUACGUGGCUU [hsa-miR-3186-5p]; 1 (yes)
AGCAUGACAGAGGAGAGGUGG [hsa-miR-6076]; 1 (yes)
UUGGCCAUGGGGCUGCGCGG [hsa-miR-3187-3p]; 1 (yes)

Strictly below 50% in percent viability? UGGGUUUACGUUGGGAGAACU [hsa-miR-629-5p]
0 (no)

Do the same for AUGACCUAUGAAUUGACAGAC [hsa-miR-215] please
1 (yes)

And the next one, GAGCCAGUGGUGAGACAGUGA [hsa-miR-4676-5p] ?
0 (no)
